protocol-notes: Compound 1 single dose pharmacokinetics in the rat
Format: in vivo
measurement-setup: Sprague-Dawley, 2.0 mg/kg oral, single dose, plasma
measured-parameter: Cmax (nM)
Field format: number, assumed nM, no unit text.

Note Cmax for the compound shown: CC(C)Oc1ccc(-c2nc(-c3cccc4c3CCC4=O)no2)cc1C#N
14.8

###

protocol-notes: Compound 1 single dose pharmacokinetics in the rat
Assay type: in vivo
measurement-setup: Sprague-Dawley, 0.2 mg/kg IV, single dose, plasma, read-out: AUC0-24
measured-parameter: AUC(0-t)

Given CC(C)Oc1ccc(-c2nc(-c3cccc4c3CCC4=O)no2)cc1C#N [Compound 1] , respond with its AUC(0-t).
0.386 µM·h

###

target-or-system: S1P3R (Homo sapiens, UniProt Q99500)
Construct: expressed in transfected cells; membranes
Sequence (Q99500 whole entry): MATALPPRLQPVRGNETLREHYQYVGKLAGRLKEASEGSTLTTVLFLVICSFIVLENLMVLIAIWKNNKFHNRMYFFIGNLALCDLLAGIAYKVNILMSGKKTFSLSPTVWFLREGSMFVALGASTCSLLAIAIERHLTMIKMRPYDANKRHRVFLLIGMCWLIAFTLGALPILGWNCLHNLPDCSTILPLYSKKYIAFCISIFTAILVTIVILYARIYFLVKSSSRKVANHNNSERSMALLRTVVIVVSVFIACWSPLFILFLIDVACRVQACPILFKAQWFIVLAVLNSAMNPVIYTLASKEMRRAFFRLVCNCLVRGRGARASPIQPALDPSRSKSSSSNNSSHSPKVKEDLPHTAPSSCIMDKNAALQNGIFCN
protocol-notes: [35S]GTPγS binding to membranes, S1P3R
Format: biochemical
measurement-setup: Table 4 comparative selectivity, agonist values; read-out: EC50 S1P3
pEC50: −log10 of the molar value.
Catalogue of compounds with associated pEC50

{"compound": "CC(C)Oc1ccc(-c2nc(-c3cccc4c3CCC4=O)no2)cc1C#N", "result": "< 5.30"}

Tell me its pEC50 given CC(C)Oc1ccc(-c2nc(-c3cccc4c3CC[C@@H]4NCCO)no2)cc1C#N [Ozanimod, reference compound] as the entry.
< 5.30

###

protocol-notes: Compound 1 single dose pharmacokinetics in the rat
Type: in vivo
measurement-setup: Sprague-Dawley, 2.0 mg/kg oral, single dose, plasma, read-out: t½ (converted)
measured-parameter: half-life (h)
Response body: numeric value in h, unit text excluded.

Tell me measured half-life for CC(C)Oc1ccc(-c2nc(-c3cccc4c3CCC4=O)no2)cc1C#N please.
3.73

###

target-or-system: S1P5R (Homo sapiens)
Construct: expressed in transfected cells; membranes
Sequence (Q9H228 whole entry): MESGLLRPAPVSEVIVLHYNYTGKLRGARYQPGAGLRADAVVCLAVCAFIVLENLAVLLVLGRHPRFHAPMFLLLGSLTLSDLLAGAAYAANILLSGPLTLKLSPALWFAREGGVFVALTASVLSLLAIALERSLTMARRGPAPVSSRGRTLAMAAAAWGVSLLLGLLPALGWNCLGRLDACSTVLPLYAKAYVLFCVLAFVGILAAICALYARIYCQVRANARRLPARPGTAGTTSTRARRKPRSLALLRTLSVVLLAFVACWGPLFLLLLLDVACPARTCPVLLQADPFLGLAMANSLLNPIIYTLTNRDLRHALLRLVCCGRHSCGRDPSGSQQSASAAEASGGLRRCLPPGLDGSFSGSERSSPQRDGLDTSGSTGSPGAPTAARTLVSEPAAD
protocol-notes: β-lactamase gene expression and activity whole-cell assay, S1P5R
Assay type: cell-based
measurement-setup: stable cells expressing recombinant human S1P5R
measured-parameter: EC50 (nM)
Output spec: scalar in nM, unitless text.

Item CC(C)Oc1ccc(-c2nc(-c3cccc4c3CCC4=O)no2)cc1C#N [Compound 1] : provide EC50
6.9

###

protocol-notes: Compound 1 single dose pharmacokinetics in the rat
Format: in vivo
measurement-setup: Sprague-Dawley, 0.2 mg/kg IV, single dose, plasma
measured-parameter: Tmax (min)
Unit min implied. Number only.

Dear colleague, please send me the reported Tmax for CC(C)Oc1ccc(-c2nc(-c3cccc4c3CCC4=O)no2)cc1C#N when you can.
1.2

###

protocol-notes: Compound 1 single dose pharmacokinetics in the rat
Type: in vivo
measurement-setup: Sprague-Dawley, 0.2 mg/kg IV, single dose, plasma
measured-parameter: Cmax

Read the entry CC(C)Oc1ccc(-c2nc(-c3cccc4c3CCC4=O)no2)cc1C#N and write its reported Cmax.
743 nM

###

protocol-notes: Compound 1 single dose pharmacokinetics in the rat
Assay type: in vivo
measurement-setup: Sprague-Dawley, 2.0 mg/kg oral, single dose, plasma
measured-parameter: Vd/F (L/kg)
Number only, in L/kg; omit the unit.

Tell me its Vd/F given CC(C)Oc1ccc(-c2nc(-c3cccc4c3CCC4=O)no2)cc1C#N as the entry.
292

###

target-or-system: S1P3R (Homo sapiens, UniProt Q99500)
Construct: expressed in transfected cells; membranes
protocol-notes: [35S]GTPγS binding to membranes, S1P3R
Assay type: biochemical
measurement-setup: recombinant human S1P3R membranes; read-out: EC50 S1P3R GTPγS
pEC50: −log10 of the molar value.
measured-parameter: pEC50

Provide one value: measured pEC50 of CC(C)Oc1ccc(-c2nc(-c3cccc4c3CCC4=O)no2)cc1C#N [Compound 1]
< 5.30

###

target-or-system: S1P5R (Homo sapiens)
Construct: expressed in transfected cells; membranes
protocol-notes: [35S]GTPγS binding to membranes, S1P5R
Assay type: biochemical
measurement-setup: recombinant human S1P5R membranes; read-out: EC50 S1P5R GTPγS
measured-parameter: EC50 (nM)
Just the number please, in nM, no unit attached.

For the compound CC(C)Oc1ccc(-c2nc(-c3cccc4c3CCC4=O)no2)cc1C#N , report EC50.
17.9

###

target-or-system: S1P1R (Homo sapiens, UniProt P21453)
Construct: expressed in transfected cells; membranes
Sequence (P21453 whole entry): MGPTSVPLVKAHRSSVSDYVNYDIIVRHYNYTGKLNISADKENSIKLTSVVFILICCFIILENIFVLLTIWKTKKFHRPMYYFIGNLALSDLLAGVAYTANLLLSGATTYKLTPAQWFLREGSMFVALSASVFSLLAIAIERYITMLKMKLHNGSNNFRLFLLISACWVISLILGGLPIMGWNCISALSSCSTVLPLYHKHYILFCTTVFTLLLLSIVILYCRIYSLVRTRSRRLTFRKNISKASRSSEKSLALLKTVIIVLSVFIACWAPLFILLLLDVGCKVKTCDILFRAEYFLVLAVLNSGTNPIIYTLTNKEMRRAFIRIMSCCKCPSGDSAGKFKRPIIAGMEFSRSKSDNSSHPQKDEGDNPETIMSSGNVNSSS
protocol-notes: [35S]GTPγS binding to membranes, S1P1R
Assay type: biochemical
measurement-setup: recombinant human S1P1R membranes
measured-parameter: EC50 (nM)
Dear colleague, please return just the value in nM, with no unit written.

Dear colleague, please send me the reported EC50 for CC(C)Oc1ccc(-c2nc(-c3cccc4c3CCC4=O)no2)cc1C#N when you can.
2.1

###

target-or-system: S1P3R (Homo sapiens)
Construct: expressed in transfected cells; membranes
protocol-notes: β-lactamase gene expression and activity whole-cell assay, S1P3R
Type: cell-based
measurement-setup: stable cells expressing recombinant human S1P3R
measured-parameter: EC50

Please look at this molecule and report its EC50: CC(C)Oc1ccc(-c2nc(-c3cccc4c3CCC4=O)no2)cc1C#N [Compound 1]
> 10 µM

###

protocol-notes: Compound 1 single dose pharmacokinetics in the rat
Type: in vivo
measurement-setup: Sprague-Dawley, 2.0 mg/kg oral, single dose, plasma
measured-parameter: Tmax (h)
All answers are understood in h, so give the number only.

Give the measured Tmax for CC(C)Oc1ccc(-c2nc(-c3cccc4c3CCC4=O)no2)cc1C#N
3

###

target-or-system: S1P4R (Homo sapiens, UniProt O95977)
Construct: expressed in transfected cells; membranes
Sequence (O95977 whole entry): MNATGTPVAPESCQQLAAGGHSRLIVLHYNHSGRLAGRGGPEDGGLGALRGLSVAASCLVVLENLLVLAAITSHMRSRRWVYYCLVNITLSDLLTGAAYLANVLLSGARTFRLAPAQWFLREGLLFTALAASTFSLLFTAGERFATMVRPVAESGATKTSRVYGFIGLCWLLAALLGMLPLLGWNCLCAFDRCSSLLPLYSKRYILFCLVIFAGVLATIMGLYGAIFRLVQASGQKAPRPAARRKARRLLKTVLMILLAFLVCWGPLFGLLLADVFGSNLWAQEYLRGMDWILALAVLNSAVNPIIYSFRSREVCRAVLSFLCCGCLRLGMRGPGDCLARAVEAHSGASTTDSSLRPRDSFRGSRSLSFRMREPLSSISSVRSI
protocol-notes: [35S]GTPγS binding to membranes, S1P4R
Assay type: biochemical
measurement-setup: Table 4 comparative selectivity, agonist values; read-out: EC50 S1P4
Protocol: S1P1R is a GPCR that couples exclusively to the inhibitory G protein (Gαi), decreasing adenylate cyclase activity and lowering cyclic adenosine monophosphate (cAMP levels) in the cell. The potency of Compound 1 was tested against the S1P1 receptor (S1P1R) and related family members. The potency and S1P receptor selectivity were measured using two independent in vitro assays, [^35S]guanosine-5′-O-(3-thio)triphosphate ([^35S]GTPγS) and β-lactamase gene expression and activity. […]
measured-parameter: pEC50
Lab note: report pEC50 as minus log10 of the concentration in molar units, number only.

Provide pEC50, recorded with S1P4R (Homo sapiens, UniProt O95977), of CC(C)Oc1ccc(-c2nc(-c3cccc4c3CC[C@@H]4NCCO)no2)cc1C#N [Ozanimod, reference compound]
5.69

###

target-or-system: S1P1R (Homo sapiens)
Construct: expressed in transfected cells; membranes
protocol-notes: β-lactamase gene expression and activity whole-cell assay, S1P1R
Type: cell-based
measurement-setup: stable cells expressing recombinant human S1P1R
measured-parameter: EC50 (pM)
Provide the reading as a plain figure in pM.

Identify measured EC50 associated with CC(C)Oc1ccc(-c2nc(-c3cccc4c3CCC4=O)no2)cc1C#N
40

###

protocol-notes: Compound 1 single dose pharmacokinetics in the rat
Format: in vivo
measurement-setup: Sprague-Dawley, plasma, 2.0 mg/kg oral vs 0.2 mg/kg IV
measured-parameter: bioavailability

Please indicate bioavailability recorded for CC(C)Oc1ccc(-c2nc(-c3cccc4c3CCC4=O)no2)cc1C#N
2.5%

###

As shown below, each of these molecules has a reported Tmax value.
protocol-notes: Clinical PK, Phase 1 study of ozanimod HCl in relapsing remitting multiple sclerosis subjects
Format: in vivo, human
measurement-setup: human, blood, po; read-out: Median Tmax

Output Tmax of CC(C)Oc1ccc(-c2nc(-c3cccc4c3CCC4=O)no2)cc1C#N [Compound 1]
6 to 10 h

Give the reported Tmax for this molecule. CC(C)Oc1ccc(-c2nc(-c3cccc4c3CC[C@@H]4NCCO)no2)cc1C#N [Ozanimod, reference compound]
6 to 8 h
